# credit: patent US20200247886A1

- Assayed System: T1, human CD47 expressed on cells (CD47 expressing CHO cells, Jurkat, HL60, DLD1, Raji) (human, UniProt Q08722 19-292)
- T1 construct: also called CHO-CD47; IAP
- Method: flow cytometry on CD47 expressing CHO cells, MFI (FL-4)
Collected EC50 (read off the curve) values appear next to each entry.

- Binder: "C-ABU4 (antibody, human IgG4 S228P, kappa, V domains shown, Human chimeric IgG4 antibody) VH: QVQLQQSGPQLVRPGASVKISCKTSGYSFTNYWMQWVKQRPGQGLEWIGMIDPSDSESRLNQKFKDKATLTVDKSSSTAYMQLSSPTFEDSAVYYCARRGSPMITSFAYWGQGTLVTVSA VL: DVQITQSPSFLAASPGETITINCRASKNIGKYLAWFQEKPGKTNKLLIYSGSTLQSGIPSRFSGSGSGTDFTLTISSLEPEDFAIYYCQQHNEYPYTFGGGTKLEIKR"
  Test Value: "~1 nM"
- Binder: "C-ABU2 (antibody, V domains shown) VH: QVQLQQPGAELVRPGASVKLSCKASGYTFTNYWMNWFKQRPEQGLEWIGRIDPYDSETLYNQKFKDKAILTVDKSSSTAYMQLSSLTSEDSAVYYCAGGGKGGFGYWGQGTLVTVSA VL: DVLMTQTPLSLPVSLGDQASISCRSSQSIVYSNGNTYLEWYLQKPGQSPKLLIYKVSNRFSGVPDRFSGSGSGTDFTLKISRVEAEDLGVYYCFQGSHVPYTFGGGTKLEIK"
  Test Value: "~1 nM"

Documented EC50 (read off the curve) of Positive 2 (benchmark analogue antibody) (antibody, V domains shown, also called Pos) VH: QVQLQQPGAELVKPGASVMMSCKASGYTFTNYNMHWVKQTPGQGLEWIGTIYPGNDDTSYNQKFKDKATLTADKSSSAAYMQLSSLTSEDSAVYYCARGGYRAMDYWGQTSVTVSS VL: DVLMTQTPLSLPVSLGDQASISCRSSQSIVYSNGNTYLGWYLQKPGQSPKLLIYKVSNRFSGVPDRFSGSGSGTDFTLKISRVEAEDLGVYHCFQGSHVPYTFGGGTKVEIK : ~2 nM
